assayed.system: TSPO (Rattus norvegicus, UniProt P16257)
assay.summary: TSPO radiometric binding assay, C6 glioma cell lysate, displacement of [3H]PK11195
Set-up: frozen and thawed three times in lysis buffer; endogenous in cells; host or cells: C6 rat glioma cells
details: versus [3H]PK11195; C6 lysate; low-affinity component; read-out: C6 Glioma Ki, low-affinity binding (mixed affinity binding)
Reported pKi by item:
Notebook: values listed as pKi are -log10 of the concentration (mol/L).

CN(C)C(=O)Cc1nn(-c2ccc(F)cc2)c(=O)c2c1c1ccc(Cl)cc1n2C | 8.52

Now consider a different molecule.
If you can, please state the reported pKi value of "CN(C)C(=O)Cc1nn(-c2cccc(F)n2)c(=O)c2c1c1ccc(Cl)cc1n2C" .
8.75
